- assay.info: AUC (0 to infinity) in Sprague-Dawley rat at 10 mg/kg, po
- Type: ADME, organism-based
- Design: time infinity, dose 10 mg/kg, route oral
- conditions.used: plasma
experimental.endpoint: AUC(0-inf) (ng·h/mL)

A: O=C(/N=c1\sc(CCNc2ncnc3ccsc23)cn1COP(=O)(O)O)Nc1cccc(Cl)c1
B: CS(=O)(=O)O.O=C(Nc1cccc(Cl)c1)Nc1ncc(CCNc2ncnc3ccsc23)s1 [SNS-314 MESYLATE]
Returns: the argument ( A or B ) having the larger AUC(0-inf). Respond with the label that goes with your answer.
B
(B: 3650 ng·h/mL, A: 2200 ng·h/mL)

###

- assay.info: Aqueous solubility at pH 3.2
- Format: physicochemical
- conditions.used: aqueous solution
experimental.endpoint: solubility (µg/mL)

a: CC(C)(C)C(=O)OCn1cc(CCNc2ncnc3ccsc23)s/c1=N\C(=O)Nc1cccc(Cl)c1
b: CS(=O)(=O)O.O=C(Nc1cccc(Cl)c1)Nc1ncc(CCNc2ncnc3ccsc23)s1 [SNS-314 MESYLATE]
c: CC(C)C(=O)OCn1cc(CCNc2ncnc3ccsc23)s/c1=N\C(=O)Nc1cccc(Cl)c1
In a descending ranking, list each entry from above by its solubility, from the largest value down to the smallest. The labels, placed in the requested order, form the answer.
a, c, b

###

- assay.info: Chemical stability assessed as compound remaining in DMSO after 8 hrs
- Type: physicochemical
- conditions.used: read-out: Stability
experimental.endpoint: remaining at 8 h (%)

Consider the reported remaining at 8 h for these compounds:
O=C(/N=c1\sc(CCNc2ncnc3ccsc23)cn1COC(=O)CC1CCNCC1)Nc1cccc(Cl)c1 ... 100
O=C(/N=c1\sc(CCNc2ncnc3ccsc23)cn1COP(=O)(O)O)Nc1cccc(Cl)c1 ... 100

1: CNCC(=O)OCn1cc(CCNc2ncnc3ccsc23)s/c1=N\C(=O)Nc1cccc(Cl)c1
2: O=C(/N=c1\sc(CCNc2ncnc3ccsc23)cn1COC(=O)C1CCNCC1)Nc1cccc(Cl)c1
Between the entries labeled 1 and 2 , whose measured remaining at 8 h is lower? Respond with the label that goes with your answer.
1
(1: 0%, 2: 84%)

###

- assay.info: Chemical stability assessed as compound remaining in aqueous buffer at pH 7.4 after 8 hrs
- Assay type: physicochemical
- conditions.used: read-out: Stability
experimental.endpoint: remaining at 8 h (%)

CNCC(=O)OCn1cc(CCNc2ncnc3ccsc23)s/c1=N\C(=O)Nc1cccc(Cl)c1 ... 0

I: CC(C)(C)C(=O)OCn1cc(CCNc2ncnc3ccsc23)s/c1=N\C(=O)Nc1cccc(Cl)c1
II: O=C(/N=c1\sc(CCNc2ncnc3ccsc23)cn1COC(=O)C1CCNCC1)Nc1cccc(Cl)c1
Between the entries labeled I and II , whose measured remaining at 8 h is lower? Respond with the label that goes with your answer.
II

###

- assay.info: Permeability across MDCK cells
- Assay type: ADME, cell-based, Canis lupus familiaris
- conditions.used: dog, read-out: permeability
experimental.endpoint: Papp

Name the recorded Papp for O=C(/N=c1\sc(CCNc2ncnc3ccsc23)cn1COP(=O)(O)O)Nc1cccc(Cl)c1 .
< 10 nm/s

###

- assay.info: Chemical stability assessed as compound remaining in aqueous buffer at pH 7.4 after 8 hrs
- Format: physicochemical
- conditions.used: read-out: Stability
experimental.endpoint: remaining at 8 h (%)

O=C(/N=c1\sc(CCNc2ncnc3ccsc23)cn1COP(=O)(O)O)Nc1cccc(Cl)c1 ... 100
CC(=O)OCn1cc(CCNc2ncnc3ccsc23)s/c1=N\C(=O)Nc1cccc(Cl)c1 ... 100
O=C(/N=c1\sc(CCNc2ncnc3ccsc23)cn1COC(=O)CC1CCNCC1)Nc1cccc(Cl)c1 ... 100
